RUN DESCRIPTION: Stability in rat liver microsome after 60 mins
Assay type: ADME
MEASUREMENT CONTEXT: liver microsomes, read-out: Stability
RECORDED METRIC: remaining at 1 h

>>> result_value("COc1cccc([C@@]2(OCC3CC3)CCCC[C@@H]2CN(C)C)c1")
"3%"
>>> result_value("COc1cccc(C2(O)CCCCC2CN(C)C)c1 (racemic) [TRAMADOL]")
"58%"
>>> result_value("CO[C@]1(c2cccc(C#N)c2)CCCC[C@@H]1CN(C)C")
"69%"
>>> result_value("CCCCO[C@]1(c2cccc(OC)c2)CCCC[C@@H]1CN(C)C")
"3%"
>>> result_value("COc1cccc([C@@]2(OC)CCCC[C@@H]2CN(C)C)c1 (racemic)")
"17%"
>>> result_value("CNCC1CCCCC1(OC)c1cccc(OC)c1 (racemic)")
"31%"

* * *

Each entry below carries its recorded remaining at 1 h.
RUN DESCRIPTION: Stability in rat liver microsome after 60 mins
Format: ADME
MEASUREMENT CONTEXT: liver microsomes, read-out: Stability
RECORDED METRIC: remaining at 1 h

>>> result_value("CNC[C@H]1CCCC[C@]1(OC)c1cccc(O)c1 (stereo in doubt; 23)")
"86%"
>>> result_value("CO[C@]1(c2ccccc2)CCCC[C@@H]1CN(C)C (stereo in doubt; 14)")
"56%"
>>> result_value("CO[C@]1(c2cccc(O)c2)CCCC[C@@H]1CN(C)C")
"88%"

* * *

Target or system Mu-type opioid receptor (Homo sapiens); recorded quantity pIC50.
pIC50: −log10 of the molar value.
RECORDED METRIC: pIC50

>>> result_value("CO[C@]1(c2ccccc2)CCCC[C@@H]1CN(C)C (stereo in doubt; 28)")
5.59
>>> result_value("CCCCO[C@]1(c2cccc(OC)c2)CCCC[C@@H]1CN(C)C")
5.19
>>> result_value("CCO[C@]1(c2cccc(O)c2)CCCC[C@@H]1CN(C)C")
6.89
>>> result_value("CCCO[C@]1(c2cccc(O)c2)CCCC[C@@H]1CN(C)C")
6.72

* * *

RUN DESCRIPTION: Stability in rat liver S9 fraction after 60 mins
Assay type: ADME, subcellular
MEASUREMENT CONTEXT: read-out: Stability
Each entry below carries its recorded remaining at 1 h.
RECORDED METRIC: remaining at 1 h (%)

>>> result_value("COc1cccc([C@@]2(OCC3CC3)CCCC[C@@H]2CN(C)C)c1")
6
>>> result_value("CNC[C@H]1CCCC[C@]1(OC)c1cccc(O)c1 (stereo in doubt; 23)")
82
>>> result_value("COc1cccc([C@@]2(OC)CCCC[C@@H]2CN(C)C)c1 (racemic)")
12

* * *

RUN DESCRIPTION: Stability in human liver S9 fraction after 60 mins
Format: ADME, subcellular
MEASUREMENT CONTEXT: read-out: Stability
Rule: remaining at 1 h below 80% gives YES. Equal to or above 80% gives NO.

>>> answer_label("CNC[C@H]1CCCC[C@]1(OC)c1cccc(O)c1 (stereo in doubt; 23)")
"NO"
>>> answer_label("COc1cccc([C@@]2(OCC3CC3)CCCC[C@@H]2CN(C)C)c1")
"YES"
>>> answer_label("COc1cccc(C2(O)CCCCC2CN(C)C)c1 (racemic)")
"NO"
>>> answer_label("CNCC1CCCCC1(OC)c1cccc(OC)c1 (racemic)")
"YES"
>>> answer_label("COc1cccc([C@@]2(OC)CCCC[C@@H]2CN(C)C)c1 (racemic)")
"NO"
>>> answer_label("CCCCO[C@]1(c2cccc(OC)c2)CCCC[C@@H]1CN(C)C")
"YES"
>>> answer_label("CO[C@]1(c2cccc(C#N)c2)CCCC[C@@H]1CN(C)C")
"NO"
>>> answer_label("CO[C@]1(c2ccccc2)CCCC[C@@H]1CN(C)C (stereo in doubt; 14)")
"NO"
>>> answer_label("CO[C@]1(c2cccc(O)c2)CCCC[C@@H]1CN(C)C")
"NO"

The reported numbers originate from ChEMBL document CHEMBL1141623.
